# Test system: anti-SRBC antibody
# Test Method Notes: Sheep Red Blood Cell (SRBC) hemolysis test, antibody formation
# Type: in vivo, BALB/c mice
# Protocol Conditions: healthy mice; peptide 5 μg/kg/day i.p. 15 days, SRBC day 12 (IFN-γ, IL-2 3×10^5 IU/kg/day); saline 32 ± 7
Marks after values point to notes of the source that are not given here. Ends that are not written are not given here.
Measurement Type: anti-SRBC antibody formation, X ± SD (Unit)

Solved entries:
Reading of anti-SRBC antibody formation, X ± SD (Unit) for LGMQACGIHETTY [CMS012] with anti-SRBC antibody: 81 ± 22*^@ Unit

The observed anti-SRBC antibody formation, X ± SD (Unit) for MATAASSSSL [CMS021] when tested with anti-SRBC antibody stands at 82 ± 30*^@ Unit

Recorded anti-SRBC antibody formation, X ± SD (Unit) for PTTKTYFPHF [CMS001] on anti-SRBC antibody was 110 ± 24*^@ Unit

I looked up Ala Gly Asp Asp Ala Pro Arg Ala Val Phe (AGDDAPRAVF; listed as Sus scrofa) [CMS007] and its anti-SRBC antibody formation, X ± SD (Unit) for anti-SRBC antibody was 122 ± 12*^@^ Unit

Form: item LRVAPQEHPVL [CMS013] ; test system anti-SRBC antibody; anti-SRBC antibody formation, X ± SD (Unit): 93 ± 28*^@ Unit

Hey, quick one: what's anti-SRBC antibody formation, X ± SD (Unit) for each of these?
1. FNFVPP [CMS003]
2. TTYNSIM [CMS026]
3. VGMGQKDSY
4. LRVAPQQHPTL [CMS009]
5. RVAPQQHPTL [CMS011]
6. VGMGQKDSYV [CMS020]

Completion:
1: 91 ± 24*^@ Unit; 2: 191 ± 17*^@^ Unit; 3: 118 ± 20*^@^ Unit; 4: 79 ± 18*^@ Unit; 5: 115 ± 27*^@^ Unit; 6: 89 ± 24*^@ Unit
